Below, each of the molecules is paired with its reported MIC value.
tested on: strains of Parvimonas micra; test: MIC against anaerobes, agar dilution (CLSI), clinical isolates; format: cell-based; conditions: Parvimonas micra strain 10
result.type: MIC

{"columns": ["molecule", "observed.value"],
 "data": [
  ["CN[C@H](CC(C)C)C(=O)N[C@H]1C(=O)N[C@@H](CC(N)=O)C(=O)N[C@H]2C(=O)N[C@H]3C(=O)N[C@H](C(=O)N[C@H](C(=O)O)c4cc(O)cc(O)c4-c4cc3ccc4O)[C@H](O)c3ccc(c(Cl)c3)Oc3cc2cc(c3O[C@@H]2O[C@H](CO)[C@@H](O)[C@H](O)[C@H]2O[C@H]2C[C@](C)(N)[C@H](O)[C@H](C)O2)Oc2ccc(cc2Cl)[C@H]1O [VAN, vancomycin, reference compound]", "< 1 µg/mL"],
  ["COc1ccc2ncc(=O)n(CCN[C@@H]3CC[C@@H]4[C@@H](C3)OC(=O)N4c3ccc4c(n3)NC(=O)CO4)c2c1 [Compound 21]", "< 1 µg/mL"],
  ["Cc1ccc2ncc(=O)n(CCN[C@H]3CC[C@H]4[C@@H](C3)OC(=O)N4c3ccc4c(n3)NC(=O)CO4)c2c1 [Compound 27]", "16 to 64 µg/mL"],
  ["Cc1ncc([N+](=O)[O-])n1CCO [MTZ, metronidazole, reference compound]", "1 to 4 µg/mL"]
]}
